Sourced from patent US10195156B2

Tested on: IP-10
Assay: Cytokine production induced by sample formulations: IP-10
Format: in vivo
Conditions: Table 4; mice, i.v., 0.5 mpk, 6 hours; in pg/mL (unit assumed)
Experimental: The introduction of foreign material into a mammalian body induces an innate immune response that promotes cytokine production. […] The induction of certain cytokines is thus measured to evaluate the […] of nanoparticle compositions. The concentrations of various cytokines in mice upon intravenous administration of nanoparticle compositions presented in Tables 1, 1a, 17-1, 19-1, 20-1 and 21-1 at a dosage of 0.5 mpk was measured at 6 hours. […]
Overview of reported IP-10 across a group of compounds:
Reply briefly: the number, and no unit.

# compound, target-or-system, meas-value
records = [
    ("CCCCC/C=C\\C/C=C\\CCCCCCCCN(CCCCCCCC/C=C\\C/C=C\\CCCCC)CCN(CCCCCCCC/C=C\\C/C=C\\CCCCC)CCN1CCNCC1 [Compound 41]", "IP-10", 350),
    ("CCCCCCCC/C=C\\CCCCCCCCN(CCCCCCCC/C=C\\CCCCCCCC)CCN(CCCCCCCC/C=C\\CCCCCCCC)CCN1CCNCC1 [Compound 40]", "IP-10", 919),
    ("CCCCCCCCCCCCN(CCCCCCCCCCCC)CCN(CCCCCCCCCCCC)CC(=O)N1CCN(C(=O)CN(CCCCCCCCCCCC)CCCCCCCCCCCC)CC1 [Compound 11]", "IP-10", 3305),
    ("CCCCC/C=C\\C/C=C\\CCCCCCCCN(CCCCCCCCCCCC)CCN1CCN(CCN(CCCCCCCCCCCC)CCN(CCCCCCCCCCCC)CCCCCCCCCCCC)CC1 [Compound 27]", "IP-10", 2564),
    ("CCCCCCCCCCCCN(CCCCCCCCCCCC)CCN(CCCCCCCCCCCC)CCN1CCN(CCN(CCCCCC)CCCCCC)CC1 [Compound 21]", "IP-10", 652),
]

Record request: IP-10 value, item CCCCCCCCCN(CCCCCCCCC)CCN(CCCCCCCCC)CCN1CCN(CCN(CCCCCCCCC)CCCCCCCCC)CC1 [Compound 18] 655

Record request: IP-10 value, item CCCCCCCCCCCCN(CCCCCCCCCCCC)CCN1CCN(C(=O)CN(CCCCCCCCCCCC)CCN(CCCCCCCCCCCC)CCCCCCCCCCCC)CC1 [Compound 2] 3365

Record request: IP-10 value, item CCCCC/C=C\C/C=C\CCCCCCCCN(CCCCCCCC/C=C\C/C=C\CCCCC)CCN1CCN(CCN(CCCCCCCCCCCC)CCN(CCCCCCCCCCCC)CCCCCCCCCCCC)CC1 [Compound 29] 3454

Record request: IP-10 value, item CCCCC/C=C\CCCCCN(CCCCC/C=C\CCCCC)CCN1CCN(CCN(CCCCCCCCCCCC)CCN(CCCCCCCCCCCC)CCCCCCCCCCCC)CC1 [Compound 25] 1823

###

system: IL-6; experiment: Cytokine production induced by sample formulations: IL-6; assay type: in vivo; conditions: Table 4; mice, i.v., 0.5 mpk, 6 hours; in pg/mL (unit assumed)
Overview of reported IL-6 across a group of compounds:
Reply briefly: the number, and no unit.

# compound, IL-6
rows = [
    ("CCCCCCCCCCCCCCN(CCCCCCCCCCCCCC)CCN1CCN(CCN(CCCCCCCCC)CCN(CCCCCCCCC)CCCCCCCCC)CC1", 127),
]

Record request: IL-6 value, item CCCCCCCC/C=C\CCCCCCCCN(CCCCCCCC/C=C\CCCCCCCC)CCN1CCN(CCN(CCCCCCCCCCCC)CCN(CCCCCCCCCCCC)CCCCCCCCCCCC)CC1 73

Record request: IL-6 value, item CCCCCC=CCC=CCCCCCCCCC(CCCCCCCCC=CCC=CCCCCC)OC(=O)CCCN(C)C (stereo not drawn) [MC3, reference compound] 92
